Measured target: human recombinant C-terminal His-tagged LDHA (Homo sapiens, UniProt P00338)
Construct: His (C)
Procedure summary: Human LDHA enzyme assay, human serum albumin (HSA) shift
Type: biochemical
Protocol conditions: final concentration 10% HSA
Catalogue of IC50 readings, one per entry.

# Molecule, Measured target, IC50
measured = [
    ("NS(=O)(=O)c1ccc(Cc2c(-c3ccc(F)cc3)nn(-c3nc(C(=O)O)cs3)c2CC2CC2)cc1F [Example 1]", "human recombinant C-terminal His-tagged LDHA (Homo sapiens, UniProt P00338)", "1 to 10 nM"),
    ("NS(=O)(=O)c1ccc(Cc2c(-c3ccc(F)c(OC(F)F)c3)nn(-c3nc(C(=O)O)cs3)c2CC2CC2)cc1F [Example 13]", "human recombinant C-terminal His-tagged LDHA (Homo sapiens, UniProt P00338)", "1 to 10 nM"),
    ("Cc1c(Cc2ccc(S(N)(=O)=O)c(F)c2)c(-c2ccc(F)cc2)nn1-c1nc(C(=O)O)cs1 [Example 3]", "human recombinant C-terminal His-tagged LDHA (Homo sapiens, UniProt P00338)", "1 to 10 nM"),
    ("NS(=O)(=O)c1ccc(Cc2c(-c3ccc(Cl)cc3)nn(-c3nc(C(=O)O)cs3)c2CC2CC2)cc1F [Example 16]", "human recombinant C-terminal His-tagged LDHA (Homo sapiens, UniProt P00338)", "10 to 100 nM"),
    ("NS(=O)(=O)c1ccc(Cc2c(-c3cc(F)cc(F)c3)nn(-c3nc(C(=O)O)cs3)c2CC2CC2)cc1F [Example 15]", "human recombinant C-terminal His-tagged LDHA (Homo sapiens, UniProt P00338)", "1 to 10 nM"),
    ("NS(=O)(=O)c1ccc(Cc2c(-c3ccc(F)cc3)nn(-c3nc(C(=O)O)cs3)c2CC2CC2)cc1Cl [Example 10]", "human recombinant C-terminal His-tagged LDHA (Homo sapiens, UniProt P00338)", "10 to 100 nM"),
    ("NS(=O)(=O)c1ccc(Cc2c(-c3ccc(F)cc3)nn(-c3nc(C(=O)O)cs3)c2CCC2CC2)cc1 [Example 6]", "human recombinant C-terminal His-tagged LDHA (Homo sapiens, UniProt P00338)", "10 to 100 nM"),
]
